Tested on: SNB-75 CNS
Assay: NCI tumour cell line growth inhibition, 48 h
Response key: TRUE means TGI >= 70 µM; FALSE means TGI < 70 µM.

[
  {
    "compound": "CN(C)C/C=C/C(=O)Nc1cc2c(Nc3ccc(F)c(Cl)c3F)ncnc2cc1OCCOC(F)F",
    "subject-of-test": "SNB-75 CNS",
    "category": "FALSE"
  },
  {
    "compound": "CCNc1nnc(-c2nsc3ccccc23)s1",
    "subject-of-test": "SNB-75 CNS",
    "category": "FALSE"
  },
  {
    "compound": "C/C=C1/CN2CCC3(O)c4ccccc4N4C=C(C(=O)OC)C1CC2C43O (centres undefined)",
    "subject-of-test": "SNB-75 CNS",
    "category": "TRUE"
  },
  {
    "compound": "N#CC(C#N)=C(N)/C(C#N)=C/c1ccc2ccccc2n1",
    "subject-of-test": "SNB-75 CNS",
    "category": "TRUE"
  },
  {
    "compound": "COc1cc(O)c2c(c1)C(=O)C=C(Cl)C2=O",
    "subject-of-test": "SNB-75 CNS",
    "category": "TRUE"
  }
]

Q. Reported TGI at or above 70 µM? `CC(=O)O[C@@H]1[C@@H](O)C2=C3[C@]4(C)[C@@H]1C(C)(C)C(=O)C[C@@H]4[C@]3(O)[C@H](OC(C)=O)[C@@]1(C[C@@H]1C)C2=O`
A. TRUE

Q. Would you kindly repeat that for CC(C)CCC[C@@H](C)C1CCC2[C@@H]3CC=C4C[C@@H](C(=O)NCC[N+](C)(C)CCCS(=O)(=O)[O-])CC[C@]4(C)C3CC[C@@]21C (some centres undefined) ?
A. FALSE

Q. Let us now turn to `O=C(Cc1csc(N=Nc2c(O)[nH]c3ccccc23)n1)Nc1ccccc1`
A. TRUE
